Collected Kd values appear next to each entry.
# assayed.target: T1, human programmed cell death protein 1 (hPD-1) C93S (aa 24-167) (Homo sapiens, UniProt Q15116, C93S)
# T1 construct: made as a fusion with a TEV site and human Fc; the Fc was cut off with TEV protease; source: Expi293F, purified (Protein A, TEV cleavage of Fc, SEC; monomer fractions); not shown: Fc (human), C-terminal, cleaved
# T1 sequence (Q15116 24-167 C93S): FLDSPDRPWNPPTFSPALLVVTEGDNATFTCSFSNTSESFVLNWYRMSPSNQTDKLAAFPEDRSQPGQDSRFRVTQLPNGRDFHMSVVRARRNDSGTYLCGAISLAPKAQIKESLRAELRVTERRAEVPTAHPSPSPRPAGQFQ
# experiment.summary: SPR; Carterra LSA; Fab from the ammonium sulfate precipitate of the culture supernatant immobilised on a NiHC200M chip; hPD-1 (1-1024 nM) or mPD-1-Fc (4-1024 nM) as analyte, fourfold dilution series, no regeneration; HBS-EP pH 7.4, 25 °C; medians over the spots of a construct, KD = koff/kon
# conditions.used: one partner purified
outcome.measure: Kd (nM)

binder: toripalimab Fab H.Y60A (Fab, V domains shown, heavy chain of Sm3 with this change; numbers count from the chain's first residue; as the light chain of Sm3; source: Brevibacillus, culture supernatant (ammonium sulfate precipitate); not shown: 6xHis, C-terminal, kept; 6xHN, C-terminal, kept) VH: QGQLVQSGAEVKKPGASVKVSCKASGYTFTDYEMHWVRQAPIHGLEWIGVIESETGGTAANQKFKGRVTITADKSTSTAYMELSSLRSEDTAVYYCAREGITTVATTYYWYFDVWGQGTTVTVSS VL: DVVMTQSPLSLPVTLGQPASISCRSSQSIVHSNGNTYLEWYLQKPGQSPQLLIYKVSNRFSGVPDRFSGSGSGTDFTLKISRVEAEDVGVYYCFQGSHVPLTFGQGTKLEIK
sign.qualifier: <
result.value: 0.309
//
binder: toripalimab Fab H.M34Y (Fab, V domains shown, heavy chain of Sm3 with this change; numbers count from the chain's first residue; as the light chain of Sm3; source: Brevibacillus, culture supernatant (ammonium sulfate precipitate); not shown: 6xHis, C-terminal, kept; 6xHN, C-terminal, kept) VH: QGQLVQSGAEVKKPGASVKVSCKASGYTFTDYEYHWVRQAPIHGLEWIGVIESETGGTAYNQKFKGRVTITADKSTSTAYMELSSLRSEDTAVYYCAREGITTVATTYYWYFDVWGQGTTVTVSS VL: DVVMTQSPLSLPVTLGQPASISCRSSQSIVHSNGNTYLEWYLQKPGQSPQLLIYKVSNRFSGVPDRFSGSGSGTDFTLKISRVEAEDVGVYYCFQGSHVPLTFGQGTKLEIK
sign.qualifier: <
result.value: 0.414
//
binder: toripalimab Fab L.P100Q (Fab, V domains shown, as the heavy chain of Sm3; light chain of Sm3 with this change; numbers count from the chain's first residue; source: Brevibacillus, culture supernatant (ammonium sulfate precipitate); not shown: 6xHis, C-terminal, kept; 6xHN, C-terminal, kept) VH: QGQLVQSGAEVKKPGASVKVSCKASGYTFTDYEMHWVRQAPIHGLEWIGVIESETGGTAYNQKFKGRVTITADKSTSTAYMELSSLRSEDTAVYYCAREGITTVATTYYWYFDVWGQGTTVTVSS VL: DVVMTQSPLSLPVTLGQPASISCRSSQSIVHSNGNTYLEWYLQKPGQSPQLLIYKVSNRFSGVPDRFSGSGSGTDFTLKISRVEAEDVGVYYCFQGSHVQLTFGQGTKLEIK
sign.qualifier: =
result.value: 9.25
//
binder: toripalimab Fab L.V99I (Fab, V domains shown, as the heavy chain of Sm3; light chain of Sm3 with this change; numbers count from the chain's first residue; source: Brevibacillus, culture supernatant (ammonium sulfate precipitate); not shown: 6xHis, C-terminal, kept; 6xHN, C-terminal, kept) VH: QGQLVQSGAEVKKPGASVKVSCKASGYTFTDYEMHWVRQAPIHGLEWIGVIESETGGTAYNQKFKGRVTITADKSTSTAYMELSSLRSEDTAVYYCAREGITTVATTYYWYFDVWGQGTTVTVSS VL: DVVMTQSPLSLPVTLGQPASISCRSSQSIVHSNGNTYLEWYLQKPGQSPQLLIYKVSNRFSGVPDRFSGSGSGTDFTLKISRVEAEDVGVYYCFQGSHIPLTFGQGTKLEIK
sign.qualifier: <
result.value: 0.7
//
binder: toripalimab Fab L.P100Y (Fab, V domains shown, as the heavy chain of Sm3; light chain of Sm3 with this change; numbers count from the chain's first residue; source: Brevibacillus, culture supernatant (ammonium sulfate precipitate); not shown: 6xHis, C-terminal, kept; 6xHN, C-terminal, kept) VH: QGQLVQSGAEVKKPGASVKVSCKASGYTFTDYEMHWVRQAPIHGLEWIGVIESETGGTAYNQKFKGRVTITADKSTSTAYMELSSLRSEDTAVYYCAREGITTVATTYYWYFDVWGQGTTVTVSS VL: DVVMTQSPLSLPVTLGQPASISCRSSQSIVHSNGNTYLEWYLQKPGQSPQLLIYKVSNRFSGVPDRFSGSGSGTDFTLKISRVEAEDVGVYYCFQGSHVYLTFGQGTKLEIK
sign.qualifier: <
result.value: 0.355
//
binder: toripalimab Fab L.G96A (Fab, V domains shown, as the heavy chain of Sm3; light chain of Sm3 with this change; numbers count from the chain's first residue; source: Brevibacillus, culture supernatant (ammonium sulfate precipitate); not shown: 6xHis, C-terminal, kept; 6xHN, C-terminal, kept) VH: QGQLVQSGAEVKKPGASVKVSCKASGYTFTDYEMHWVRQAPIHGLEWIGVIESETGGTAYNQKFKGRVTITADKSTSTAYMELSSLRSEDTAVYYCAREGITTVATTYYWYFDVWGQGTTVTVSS VL: DVVMTQSPLSLPVTLGQPASISCRSSQSIVHSNGNTYLEWYLQKPGQSPQLLIYKVSNRFSGVPDRFSGSGSGTDFTLKISRVEAEDVGVYYCFQASHVPLTFGQGTKLEIK
sign.qualifier: =
result.value: 372
//
binder: toripalimab Fab H.A105Y (Fab, V domains shown, heavy chain of Sm3 with this change; numbers count from the chain's first residue; as the light chain of Sm3; source: Brevibacillus, culture supernatant (ammonium sulfate precipitate); not shown: 6xHis, C-terminal, kept; 6xHN, C-terminal, kept) VH: QGQLVQSGAEVKKPGASVKVSCKASGYTFTDYEMHWVRQAPIHGLEWIGVIESETGGTAYNQKFKGRVTITADKSTSTAYMELSSLRSEDTAVYYCAREGITTVYTTYYWYFDVWGQGTTVTVSS VL: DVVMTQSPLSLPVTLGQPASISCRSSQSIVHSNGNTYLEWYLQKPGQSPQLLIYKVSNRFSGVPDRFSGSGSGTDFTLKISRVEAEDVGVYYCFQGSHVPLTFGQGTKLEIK
sign.qualifier: <
result.value: 0.492
//
binder: toripalimab Fab L.L101T (Fab, V domains shown, as the heavy chain of Sm3; light chain of Sm3 with this change; numbers count from the chain's first residue; source: Brevibacillus, culture supernatant (ammonium sulfate precipitate); not shown: 6xHis, C-terminal, kept; 6xHN, C-terminal, kept) VH: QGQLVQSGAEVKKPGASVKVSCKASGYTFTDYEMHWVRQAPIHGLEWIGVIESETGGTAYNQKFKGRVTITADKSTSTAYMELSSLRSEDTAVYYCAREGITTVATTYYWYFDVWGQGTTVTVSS VL: DVVMTQSPLSLPVTLGQPASISCRSSQSIVHSNGNTYLEWYLQKPGQSPQLLIYKVSNRFSGVPDRFSGSGSGTDFTLKISRVEAEDVGVYYCFQGSHVPTTFGQGTKLEIK
sign.qualifier: =
result.value: 5.05
//
binder: toripalimab Fab L.L101Q (Fab, V domains shown, as the heavy chain of Sm3; light chain of Sm3 with this change; numbers count from the chain's first residue; source: Brevibacillus, culture supernatant (ammonium sulfate precipitate); not shown: 6xHis, C-terminal, kept; 6xHN, C-terminal, kept) VH: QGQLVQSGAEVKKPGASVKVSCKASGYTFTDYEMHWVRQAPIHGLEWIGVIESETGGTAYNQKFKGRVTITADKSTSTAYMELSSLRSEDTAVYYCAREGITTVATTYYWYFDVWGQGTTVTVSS VL: DVVMTQSPLSLPVTLGQPASISCRSSQSIVHSNGNTYLEWYLQKPGQSPQLLIYKVSNRFSGVPDRFSGSGSGTDFTLKISRVEAEDVGVYYCFQGSHVPQTFGQGTKLEIK
sign.qualifier: =
result.value: 2.78
//
binder: toripalimab Fab L.P100S (Fab, V domains shown, as the heavy chain of Sm3; light chain of Sm3 with this change; numbers count from the chain's first residue; source: Brevibacillus, culture supernatant (ammonium sulfate precipitate); not shown: 6xHis, C-terminal, kept; 6xHN, C-terminal, kept) VH: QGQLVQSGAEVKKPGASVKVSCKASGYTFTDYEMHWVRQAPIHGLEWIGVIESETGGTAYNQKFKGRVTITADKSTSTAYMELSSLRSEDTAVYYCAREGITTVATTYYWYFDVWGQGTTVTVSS VL: DVVMTQSPLSLPVTLGQPASISCRSSQSIVHSNGNTYLEWYLQKPGQSPQLLIYKVSNRFSGVPDRFSGSGSGTDFTLKISRVEAEDVGVYYCFQGSHVSLTFGQGTKLEIK
sign.qualifier: <
result.value: 1.59
